TARGET_DESC: recombinant human oestrogen receptor (HOR) (Homo sapiens)
Construct: made in house; host or cells: SF9 insect cells (ATCC CRL1711), baculovirus
METHOD: Human oestrogen receptor (HOR): displacement of tritiated oestradiol, relative bond affinity
Assay type: binding
CONDITION_INFO: oestradiol = 100; RBA=100(CH)/(CX); incubation 0° C. for 24 hours (long t)
Consider the following molecules and their measured HOR long t relative bond affinity (RBA) readings.
Lab note: record the figure alone, no unit after it.

Reference set (3 entries):
Cc1ccc(-c2ccc(O)cc2)c(C(F)(F)F)c1 [Example 29]; 0.6
O=[N+]([O-])c1cc(CO)cc(Br)c1-c1ccc(O)cc1 [Example 18]; 34
CC(C)c1cc(CO)cc(Cl)c1-c1ccc(O)cc1 [Example 4]; 22

Query HOR long t relative bond affinity (RBA) on recombinant human oestrogen receptor (HOR) (Homo sapiens) for Cc1c(C(C)O)cc(C(C)C)c(-c2ccc(O)cc2)c1Cl (stereo not shown) [Example 13]
7.5

---

TARGET_DESC: recombinant human oestrogen receptor (HOR) (Homo sapiens)
Construct: made in house; host or cells: SF9 insect cells (ATCC CRL1711), baculovirus
METHOD: Human oestrogen receptor (HOR): displacement of tritiated oestradiol, relative bond affinity
Assay type: binding
CONDITION_INFO: oestradiol = 100; RBA=100(CH)/(CX); incubation 0° C. for 24 hours (long t)
Consider the following compounds and their measured HOR long t relative bond affinity (RBA) readings.
Lab note: record the figure alone, no unit after it.

OCc1cc(Br)c(-c2ccc(O)cc2)c(Br)c1 [Example 2]; 74
O=[N+]([O-])c1cc(CO)cc([N+](=O)[O-])c1-c1ccc(O)cc1 [Example 30]; 5
CCc1cc(C(C)C)c(-c2ccc(O)cc2)cc1C [Example 6]; 4.5

I'd like to know its HOR long t relative bond affinity (RBA). The compound in question is O=Cc1cc(Cl)c(-c2ccc(O)cc2)c(Cl)c1 [Example 25]
5

---

TARGET_DESC: Oestrogen Receptor of a Rat's Uterus (ROR) (Rattus norvegicus, UniProt P06211)
Construct: the uteri are removed, then homogenized at 0° C; from tissue; host or cells: rat uterus cytosol (ultracentrifugation supernatant of homogenate)
Sequence (P06211 1-600): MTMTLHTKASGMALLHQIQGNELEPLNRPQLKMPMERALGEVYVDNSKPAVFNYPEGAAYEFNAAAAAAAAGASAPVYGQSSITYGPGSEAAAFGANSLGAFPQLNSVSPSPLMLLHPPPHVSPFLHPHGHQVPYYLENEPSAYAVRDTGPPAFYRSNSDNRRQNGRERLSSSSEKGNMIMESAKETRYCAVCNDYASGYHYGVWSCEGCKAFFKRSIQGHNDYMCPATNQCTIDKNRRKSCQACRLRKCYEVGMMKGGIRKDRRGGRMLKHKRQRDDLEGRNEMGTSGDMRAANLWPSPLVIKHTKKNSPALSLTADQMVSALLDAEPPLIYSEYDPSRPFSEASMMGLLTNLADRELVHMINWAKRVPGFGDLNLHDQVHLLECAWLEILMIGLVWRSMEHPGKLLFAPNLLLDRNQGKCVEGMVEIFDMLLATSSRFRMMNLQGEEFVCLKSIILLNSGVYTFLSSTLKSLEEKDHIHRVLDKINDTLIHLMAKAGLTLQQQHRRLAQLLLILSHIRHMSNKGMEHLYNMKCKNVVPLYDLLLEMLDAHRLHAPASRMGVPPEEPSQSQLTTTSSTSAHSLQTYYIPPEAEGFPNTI
METHOD: Oestrogen receptor of a rat's uterus (ROR): displacement of tritiated oestradiol, relative bond affinity
Assay type: binding
CONDITION_INFO: oestradiol = 100; RBA=100(CH)/(CX); rat uterus cytosol, incubation 0° C. for 24 hours
METRIC: ROR relative bond affinity (RBA)

Reference set (2 entries):
OCc1cc(Br)c(-c2ccc(O)cc2)c(Br)c1; 12.5
CC(C)c1cc(CO)cc(Cl)c1-c1ccc(O)cc1; 4

Query ROR relative bond affinity (RBA) on Oestrogen Receptor of a Rat's Uterus (ROR) (Rattus norvegicus, UniProt P06211) for `Cc1ccc(-c2ccc(O)cc2)c(C(F)(F)F)c1`
0.15

Query ROR relative bond affinity (RBA) on Oestrogen Receptor of a Rat's Uterus (ROR) (Rattus norvegicus, UniProt P06211) for `OCc1ccc(-c2ccc(O)cc2)c(C(F)(F)F)c1`
2

Query ROR relative bond affinity (RBA) on Oestrogen Receptor of a Rat's Uterus (ROR) (Rattus norvegicus, UniProt P06211) for Cc1c(C(C)O)cc(C(C)C)c(-c2ccc(O)cc2)c1Cl (centres unmarked)
0.8

---

Consider the following compounds and their measured HOR short t relative bond affinity (RBA) readings.
TARGET_DESC: recombinant human oestrogen receptor (HOR) (Homo sapiens, UniProt P03372)
Construct: made in house; host or cells: SF9 insect cells (ATCC CRL1711), baculovirus
Sequence (P03372 whole entry): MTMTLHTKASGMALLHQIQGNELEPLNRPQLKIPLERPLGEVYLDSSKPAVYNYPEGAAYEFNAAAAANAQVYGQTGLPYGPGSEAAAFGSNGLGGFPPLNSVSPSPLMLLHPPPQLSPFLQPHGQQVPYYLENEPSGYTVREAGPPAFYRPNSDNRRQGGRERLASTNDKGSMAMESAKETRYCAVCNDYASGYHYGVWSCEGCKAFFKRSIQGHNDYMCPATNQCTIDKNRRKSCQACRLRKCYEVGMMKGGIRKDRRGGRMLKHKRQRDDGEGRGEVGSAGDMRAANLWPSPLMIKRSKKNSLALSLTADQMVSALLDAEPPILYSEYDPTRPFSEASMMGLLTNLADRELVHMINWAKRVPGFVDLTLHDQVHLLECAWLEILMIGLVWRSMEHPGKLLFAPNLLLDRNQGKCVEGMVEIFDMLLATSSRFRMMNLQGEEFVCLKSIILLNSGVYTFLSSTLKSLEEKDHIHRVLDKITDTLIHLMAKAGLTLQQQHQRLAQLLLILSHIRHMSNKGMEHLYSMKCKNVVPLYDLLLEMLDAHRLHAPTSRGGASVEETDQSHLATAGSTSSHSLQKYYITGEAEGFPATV
METHOD: Human oestrogen receptor (HOR): displacement of tritiated oestradiol, relative bond affinity
Assay type: binding
CONDITION_INFO: oestradiol = 100; RBA=100(CH)/(CX); incubation 0° C. for 3 hours (short t)
Lab note: record the figure alone, no unit after it.

Reference set (4 entries):
Cc1c(C(C)O)cc(C(C)C)c(-c2ccc(O)cc2)c1Cl (stereo not drawn); 24
OCc1cc(Br)c(-c2ccc(O)cc2)c(Br)c1; 425
OCc1ccc(-c2ccc(O)cc2)c(C(F)(F)F)c1; 33
O=[N+]([O-])c1cc(CO)cc([N+](=O)[O-])c1-c1ccc(O)cc1; 24

I'd like to know its HOR short t relative bond affinity (RBA). The compound in question is `OCc1cc(Cl)c(-c2ccc(O)cc2)c(Cl)c1`
104

I'd like to know its HOR short t relative bond affinity (RBA). The compound in question is `O=Cc1cc(Cl)c(-c2ccc(O)cc2)c(Cl)c1`
12

---

TARGET_DESC: Oestrogen Receptor of a Rat's Uterus (ROR) (Rattus norvegicus, UniProt P06211)
Construct: the uteri are removed, then homogenized at 0° C; from tissue; host or cells: rat uterus cytosol (ultracentrifugation supernatant of homogenate)
Sequence (P06211 1-600): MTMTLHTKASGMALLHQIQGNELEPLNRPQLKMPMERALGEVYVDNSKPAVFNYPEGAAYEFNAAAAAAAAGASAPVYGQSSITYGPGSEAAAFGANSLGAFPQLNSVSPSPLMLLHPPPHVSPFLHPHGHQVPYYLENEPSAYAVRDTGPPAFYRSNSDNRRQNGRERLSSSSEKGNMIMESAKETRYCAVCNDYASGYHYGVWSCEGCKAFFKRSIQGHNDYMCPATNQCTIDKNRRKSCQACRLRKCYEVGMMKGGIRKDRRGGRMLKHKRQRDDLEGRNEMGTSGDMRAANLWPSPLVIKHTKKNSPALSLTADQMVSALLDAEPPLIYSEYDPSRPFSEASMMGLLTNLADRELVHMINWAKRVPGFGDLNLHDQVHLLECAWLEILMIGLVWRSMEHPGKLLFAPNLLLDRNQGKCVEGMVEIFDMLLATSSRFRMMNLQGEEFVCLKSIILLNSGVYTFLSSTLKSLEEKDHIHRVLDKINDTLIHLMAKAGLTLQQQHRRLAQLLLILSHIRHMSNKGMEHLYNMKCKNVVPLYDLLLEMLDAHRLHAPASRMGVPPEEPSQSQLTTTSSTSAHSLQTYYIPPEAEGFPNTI
METHOD: Oestrogen receptor of a rat's uterus (ROR): displacement of tritiated oestradiol, relative bond affinity
Type: binding
CONDITION_INFO: oestradiol = 100; RBA=100(CH)/(CX); rat uterus cytosol, incubation 0° C. for 24 hours
Consider the following compounds and their measured ROR relative bond affinity (RBA) readings.
Lab note: record the figure alone, no unit after it.

OCc1cc(Cl)c(-c2ccc(O)cc2)c(C(F)(F)F)c1; 9.5
O=[N+]([O-])c1cc(CO)cc([N+](=O)[O-])c1-c1ccc(O)cc1; 2
OCc1cc(Cl)c(-c2ccc(O)cc2)c(Cl)c1; 3

I'd like to know its ROR relative bond affinity (RBA). The compound in question is `OCc1cc(Cl)c(-c2ccc(O)c(Cc3ccccc3)c2)c(Cl)c1`
8

I'd like to know its ROR relative bond affinity (RBA). The compound in question is `O=[N+]([O-])c1cc(CO)cc(Br)c1-c1ccc(O)cc1`
5

---

TARGET_DESC: recombinant human oestrogen receptor (HOR) (Homo sapiens, UniProt P03372)
Construct: made in house; host or cells: SF9 insect cells (ATCC CRL1711), baculovirus
METHOD: Human oestrogen receptor (HOR): displacement of tritiated oestradiol, relative bond affinity
Format: binding
CONDITION_INFO: oestradiol = 100; RBA=100(CH)/(CX); incubation 0° C. for 24 hours (long t)
METRIC: HOR long t relative bond affinity (RBA)
Lab note: record the figure alone, no unit after it.

OCc1cc(Cl)c(-c2ccc(O)cc2)c(Cl)c1; 35
OCc1ccc(-c2ccc(O)cc2)c(C(F)(F)F)c1; 8
O=Cc1cc(Br)c(-c2ccc(O)cc2)c(Br)c1; 5.5

Query HOR long t relative bond affinity (RBA) on recombinant human oestrogen receptor (HOR) (Homo sapiens, UniProt P03372) for `OCc1cc(Cl)c(-c2ccc(O)c(Cc3ccccc3)c2)c(Cl)c1`
0.07

Query HOR long t relative bond affinity (RBA) on recombinant human oestrogen receptor (HOR) (Homo sapiens, UniProt P03372) for `OCc1cc(Cl)c(-c2ccc(O)cc2)c(C(F)(F)F)c1`
50

Query HOR long t relative bond affinity (RBA) on recombinant human oestrogen receptor (HOR) (Homo sapiens, UniProt P03372) for `OCc1c(Cl)c(Cl)c(-c2ccc(O)cc2)c(Cl)c1Cl`
5.5

Data provenance: patent US6794415B2
